molecular target: Potassium voltage-gated channel subfamily KQT member 1 (Homo sapiens) (UniProt P51787); assay: KCNQ1 potassium channel potentiators, confirmation, FluxOR thallium flux, CHO cells, duplicates (AID 493007); details: KCNQ1 cell line, FluxOR thallium flux fluorescence, at 10 µM, % of reference activator effect, buffer zero
Sequence (P51787 whole entry, looked up): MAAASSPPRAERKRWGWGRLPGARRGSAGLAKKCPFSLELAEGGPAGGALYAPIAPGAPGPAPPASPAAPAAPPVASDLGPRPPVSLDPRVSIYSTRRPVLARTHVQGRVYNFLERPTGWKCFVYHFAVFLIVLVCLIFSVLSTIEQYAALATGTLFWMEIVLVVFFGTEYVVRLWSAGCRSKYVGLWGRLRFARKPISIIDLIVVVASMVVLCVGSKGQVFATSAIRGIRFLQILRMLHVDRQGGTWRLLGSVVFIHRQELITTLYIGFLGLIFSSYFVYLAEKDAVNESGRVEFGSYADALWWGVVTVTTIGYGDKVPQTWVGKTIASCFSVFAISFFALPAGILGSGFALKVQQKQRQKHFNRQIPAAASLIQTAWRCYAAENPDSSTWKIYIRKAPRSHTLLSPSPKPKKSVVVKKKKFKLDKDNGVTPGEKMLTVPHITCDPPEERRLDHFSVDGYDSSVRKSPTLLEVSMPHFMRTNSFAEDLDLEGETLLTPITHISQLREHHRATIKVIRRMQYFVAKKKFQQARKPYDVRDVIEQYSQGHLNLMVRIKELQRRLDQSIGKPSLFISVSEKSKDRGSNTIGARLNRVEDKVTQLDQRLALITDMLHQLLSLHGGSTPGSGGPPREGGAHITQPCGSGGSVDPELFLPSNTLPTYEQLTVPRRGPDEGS
Activity calls are given as the source filed them.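 The calls were made as follows: active = potentiation averaged over duplicate wells exceeding buffer-only control mean by more than 3 SD; inactive = the rest.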
Possible outcomes: Y = active, N = inactive

Structure String	Target Under Test	Category Label
Cn1c(SCc2ccc(C#N)cc2Cl)nc2ccccc21	Potassium voltage-gated channel subfamily KQT member 1 (Homo sapiens) (UniProt P51787)	N
CCOCCc1c(O)nc(SC)[nH]c1=O	Potassium voltage-gated channel subfamily KQT member 1 (Homo sapiens) (UniProt P51787)	N
Cc1ccc(-c2c(C(=O)O)c3ccccc3[nH]c2=O)cc1	Potassium voltage-gated channel subfamily KQT member 1 (Homo sapiens) (UniProt P51787)	N
Cc1cc(Cl)ccc1OCc1n[nH]c(=S)n1C1CCCCC1	Potassium voltage-gated channel subfamily KQT member 1 (Homo sapiens) (UniProt P51787)	Y
CN(C(=S)NC(=O)c1ccccc1)C1CCCCC1	Potassium voltage-gated channel subfamily KQT member 1 (Homo sapiens) (UniProt P51787)	Y
COc1cc(OC)cc(-c2nnc(Nc3nc4c(F)cccc4s3)o2)c1	Potassium voltage-gated channel subfamily KQT member 1 (Homo sapiens) (UniProt P51787)	N
